Recorded measurements of pIC50, one per entry
# tested_on: OXE receptor (Homo sapiens)
# Construct: Human granulocytes (≥95% neutrophils) are prepared from whole blood; endogenous in cells; host or cells: human granulocytes (≥95% neutrophils) from whole blood
# Sequence (Q8TDS5 whole entry): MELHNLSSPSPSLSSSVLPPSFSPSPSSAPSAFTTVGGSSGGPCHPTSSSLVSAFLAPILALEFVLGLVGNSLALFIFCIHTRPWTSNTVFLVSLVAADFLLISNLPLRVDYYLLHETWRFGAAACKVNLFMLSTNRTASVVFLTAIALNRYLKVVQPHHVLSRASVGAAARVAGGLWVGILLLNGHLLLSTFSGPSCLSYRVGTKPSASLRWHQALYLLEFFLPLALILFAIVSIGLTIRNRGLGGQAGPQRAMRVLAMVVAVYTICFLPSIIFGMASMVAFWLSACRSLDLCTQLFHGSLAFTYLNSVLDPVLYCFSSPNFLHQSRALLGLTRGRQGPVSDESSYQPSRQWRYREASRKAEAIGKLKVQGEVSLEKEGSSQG
# assay: Calcium mobilization in human granulocytes (inhibition of 5-oxo-ETE-induced calcium mobilization)
# Assay type: cell-based
# test_context: inhibition of calcium mobilization induced by 5-oxo-ETE (10 nM) in human granulocytes; bracketed figure in cell = n; read-out: IC50
In simple prose, pIC50 is minus the logarithm base ten of a concentration in moles per litre.

Answered cases to consult:
molecule	quantitative_result
CC(CC(=O)O)CC(=O)c1c(CCCCCCc2ccc(F)cc2)n(C)c2ccc(Cl)cc12 (stereo not shown)	9.10
C[C@@H](CC(=O)O)CC(=O)c1c(CCCCCCc2ccc(F)cc2)n(C)c2ccc(Cl)cc12 (single isomer, unassigned)	8.35
CC(CC(=O)O)CC(=O)c1c(CCCCCc2ccccc2)n(C)c2ccc(Cl)cc12 (stereo not shown)	7.96

Query molecule follows.
Which pIC50 is reported for this molecule? CC(CC(=O)O)CC(=O)c1c(COCCCc2ccccc2)n(C)c2ccc(Cl)cc12 (stereo not shown) 9.15
